- Test system: Mycobacterium tuberculosis H37Rv
- PROTOCOL SUMMARY: Susceptibility testing against Mycobacterium tuberculosis H37Rv (broth microdilution, resazurin readout)
- Type: cell-based
- RUN CONDITIONS: Mycobacterium tuberculosis, 168 h; M. tuberculosis H37Rv, 7 days at 37° C., resazurin fluorescence; read-out: MIC50 (μM) M. tub H37Rv
Give measured MIC50 for each item. Keep answers brief.

# input Which value of MIC50 has been reported for FC(F)(F)c1cccc(C2CC(CN3CCCC3)N2Cc2ccccc2C(F)(F)F)c1 (racemic) in the records?
# output 7.04 µM

# input Which value of MIC50 has been reported for FC(F)(F)Oc1ccccc1CN1C(CN2CCCC2)CC1c1ccccc1OC(F)(F)F (racemic) in the records?
# output 7.05 µM

# input Which value of MIC50 has been reported for Brc1cc(Br)cc(C2CC(CN3CCCC3)N2Cc2ccccc2Br)c1 (racemic) in the records?
# output 7.03 µM

====

- Test system: Mycobacterium tuberculosis H37Rv
- PROTOCOL SUMMARY: Susceptibility testing against Mycobacterium tuberculosis H37Rv (broth microdilution, resazurin readout)
- Assay type: cell-based
- RUN CONDITIONS: Mycobacterium tuberculosis, 168 h; M. tuberculosis H37Rv, 7 days at 37° C., resazurin fluorescence; read-out: MIC50 (μM) M. tub H37Rv
MEASUREMENT TYPE: MIC50 (µM)
All answers are understood in µM, so give the number only.

# input Which value of MIC50 has been reported for CN(C)CC1CC(c2ccc(OC(F)(F)F)cc2)N1Cc1ccccc1OC(F)(F)F (racemic) in the records?
# output 9.9

# input Which value of MIC50 has been reported for FC(F)(F)c1cc(C2CC(CN3CCCC3)N2Cc2ccccc2Br)cc(C(F)(F)F)c1 (racemic) in the records?
# output 6.93

# input Which value of MIC50 has been reported for CC(C)NCC1CC(c2ccc(OC(F)(F)F)cc2)N1Cc1ccccc1Br (racemic) in the records?
# output 9.85
